Average survival time of mites by entry:
Tested on: Demodex
Experiment: Acaricidal experiment: in vitro culture of Demodex with compound solutions, time to death of mites
Conditions: compound 10 mg/mL in 0.9% NaCl, 50 μl, 20° C., 96% humidity
Experimental: In this study, Demodex was collected from patients diagnosed with ocular Demodex infection. Those meeting the inclusion criteria would be enrolled after an informed conversation and signing an informed consent form. Demodex detection was performed according to the conventional eyelash microscopic examination method. 3 eyelashes were extracted from each eyelid, and a total of 12 eyelashes were extracted. […]
Where a name gives a salt, the structure may show the parent alone.

| compound | target.under.test | lt.gt.eq | Average survival time of mites [h] |
| --- | --- | --- | --- |
| Cc1ccccc1C(OCCN(C)C)c1ccccc1 (stereo not shown) [Orphenadrine Citrate] | Demodex | = | 4.35 |
| C[C@@H](c1ncncc1F)[C@](O)(Cn1cncn1)c1ccc(F)cc1F [Voriconazole] | Demodex | = | 72 |
| COc1cc(N)c(Cl)cc1C(=O)NC1CCN(CCCOc2ccc(F)cc2)CC1OC (stereo not shown) [Cisapride] | Demodex | = | 72 |
| CN[C@H]1CC[C@@H](c2ccc(Cl)c(Cl)c2)c2ccccc21 [Sertraline HCl] | Demodex | = | 2.50 |
| C=C[C@H]1C[N@@]2CC[C@H]1C[C@@H]2[C@@H](O)c1ccnc2ccc(OC)cc12 [Quinidine sulfate] | Demodex | = | 5 |
| CC12CC3CC(C)(C1)CC(N)(C3)C2 [Memantine HCl] | Demodex | = | 17 |
| Cc1ncc([N+](=O)[O-])n1CCO [Metronidazole] | Demodex | = | 67 |
| S=P(N1CC1)(N1CC1)N1CC1 [Thiotepa] | Demodex | = | 22 |
| CC(=O)N1CCN(c2ccc(OCC3COC(Cn4ccnc4)(c4ccc(Cl)cc4Cl)O3)cc2)CC1 (stereo not shown) [Ketoconazole] | Demodex | = | 97 |
| C=C1CC[C@@]23C[C@@H]1C(C)(C)[C@@H]2CC[C@H]3C [β-cedrene] | Demodex | = | 42.57 |
| N[C@@H]1C[C@H]1c1ccccc1 [Tranylcypromine HCl] | Demodex | = | 2.89 |
| O=c1c(O)c(-c2ccc(O)c(O)c2)oc2cc(O)cc(O)c12 [Quercetin] | Demodex | = | 4 |
| CO[C@@H]1[C@H](N(C)C(=O)c2ccccc2)C[C@H]2O[C@]1(C)n1c3ccccc3c3c4c(c5c6ccccc6n2c5c31)C(=O)NC4 [Midostaurin] | Demodex | = | 42 |
| C[C@@H]1CC[C@H]2C(C)(C)[C@H]3C[C@@]12CC[C@@]3(C)O [Cedrol] | Demodex | < | 20.04 |
| CC(C)(O)c1ccccc1CC[C@@H](SCC1(CC(=O)O)CC1)c1cccc(/C=C/c2ccc3ccc(Cl)cc3n2)c1 [Montelukast Sodium] | Demodex | = | 5 |
| CCc1ccc(C)c2ccc(C)c-2c1 [Chamazulene] | Demodex | = | 11.49 |

---

test system: Demodex; assay: Acaricidal experiment: in vitro culture of Demodex with compound solutions, time to death of mites; conditions: compound 10 mg/mL in 0.9% NaCl, 50 μl, 20° C., 96% humidity
Entry flag: criterion met if Average survival time of mites reaches 70 h; criterion not met if it does not.

| molecule | group |
| --- | --- |
| COc1cc(/C=C/C(=O)CC(=O)/C=C/c2ccc(O)c(OC)c2)ccc1O | criterion not met |
| COc1c2occc2cc2ccc(=O)oc12 | criterion not met |
| CCC(C)n1ncn(-c2ccc(N3CCN(c4ccc(OCC5COC(Cn6cncn6)(c6ccc(Cl)cc6Cl)O5)cc4)CC3)cc2)c1=O (stereo not drawn) | criterion met |
| Cc1cc(O)c(C(=O)CCC(C)C)c(=O)o1 | criterion not met |
| CN/C(=N/CCSCc1nc[nH]c1C)NC#N | criterion not met |
| COC(=O)[C@H](c1ccccc1Cl)N1CCc2sccc2C1 [Clopidogrel Bisulfate] | criterion not met |
